Assignment: determine reported inhibition for the given compounds.
- Protocol Text: growth inhibition of non-replicating M. tuberculosis (AID 488890);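 note: plate controls were DMSO cells for no effect and high antibiotic wells for full effect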
- Condition Description: Mycobacterium tuberculosis non-replicating, at 25 µM, stronger effect = higher value
Screen size: about 320,000 compounds; about 1,300 (0.41%) were called active. Roughly 3% stayed inconclusive and do not appear here. These entries were drawn from the full list. Entries with a potency or affinity are not part of this list.
Answers are plain numbers, in %.

These recorded examples may help you get a feel for the data.
* O=C(CC1CCCCC1)NCc1ccc(Cl)cc1 | 11
* CC(NC(=O)CCSCCC(=O)NC(C)c1ccccc1)c1ccccc1 (configuration not stated) | 21.4
* Cc1ccc2sc3ccc(NC(=O)c4ccccc4Cl)cc3c(=O)c2c1 | -1.36
* O=C(NCc1cccs1)C1CC1 | -9.67
* O=C(NCCCNC(=O)c1cccs1)c1cccs1 | -16.1
* O=C(NCc1cccs1)C12CC3CC(CC(C3)C1)C2 | 26.9

Moving on to another compound below.
INPUT: Would you kindly share the measured inhibition for O=C(CC1CCCCC1)NCc1ccccc1Cl ?
OUTPUT: 33

----------
Assignment: determine reported inhibition for the given compounds.
- Protocol Text: growth inhibition of non-replicating M. tuberculosis (AID 488890)
- Condition Description: Mycobacterium tuberculosis non-replicating, at 25 µM, stronger effect = higher value
About 1,300 (0.41%) of roughly 320,000 compounds were called active. Another 3% or so got no clear call; they are omitted. Only a sample is shown. Entries with a potency or affinity are not part of this list.
Numbers only, in %.

These recorded examples may help you get a feel for the data.
* O=C(Cc1csc(Nc2nc(=S)[nH]c3ccccc23)n1)N1CCN(c2cccc(C(F)(F)F)c2)CC1 | -8.89
* COc1ccc(CCNC(=O)c2cc3cc(F)ccc3nc2C)cc1OC | 2.52

Okay, here is my list. What is inhibition for each of these?
1. Cc1ccc(CNC(=O)CN(c2ccc(C(C)C)cc2)S(=O)(=O)c2c(C)noc2C)cc1
2. C#CCOCCOCCOCCNc1nc(N2CCN(C(=O)[C@H](CCC(=O)O)n3cc([C@@H](N)[C@H](C)CC)nn3)CC2)nc(N2CCN(C(=O)[C@H](CCCCN)n3cc([C@@H](N)CC(N)=O)nn3)CC2)n1
3. CCOC(=O)C1=C(C)NC2=C(C(=O)CC(C)(C)C2)C1c1ccc2c(c1)CCCN2C (centres undefined)
4. Cc1cc(C(=O)N2CCN(c3ncccn3)CC2)nn1C

OUTPUT:
[7.31, -0.95, 58.9, -1.81]

----------
- Protocol Text: growth inhibition of non-replicating M. tuberculosis (AID 488890)
- Condition Description: Mycobacterium tuberculosis non-replicating, at 25 µM, stronger effect = higher value
Among all 320,000 compounds or so, about 1,300 (0.41%) were called active. About 3% were inconclusive and are not listed. Only a sample is shown. Measured potencies and affinities stand elsewhere.
Assignment: determine reported inhibition for the given compounds.
Answers are plain numbers, in %.

These recorded examples may help you get a feel for the data.
* CC(C)NC(=O)COC(=O)c1cc(Br)ccc1Cl | 75.9
* O=C(O)c1ccccc1N=N/C(=N/Nc1cc(S(=O)(=O)O)ccc1O)c1ccccc1 | -12.5
* O=C(Nc1ncccn1)c1ccc([N+](=O)[O-])cc1 | 34

Okay, here is my list. What is inhibition for each of these?
1. COc1ccccc1OCC(=O)NCc1n[nH]c(=O)c2ccccc12
2. O=C(Nc1nnc(C23CC4CC(CC(C4)C2)C3)s1)c1ccc(N2C(=O)CCC2=O)cc1

OUTPUT:
1. -15.2
2. 13.4

----------
- Protocol Text: growth inhibition of non-replicating M. tuberculosis (AID 488890)
- Condition Description: Mycobacterium tuberculosis non-replicating, at 25 µM, stronger effect = higher value
The campaign covered roughly 320,000 compounds. About 1,300 (0.41%) were called active. Roughly 3% stayed inconclusive and do not appear here. A selection follows. Results with a measured potency or affinity are listed apart.
Measured Quantity: inhibition (%)
Give bare numbers, in %.

Okay, here is my list. What is inhibition for each of these?
1. CN(CC(=O)Nc1ccc(F)c(F)c1)S(=O)(=O)c1cccs1
2. Cc1cccc(NC(=O)COc2ccc3oc4c(c3c2)CCCC4)n1
3. COc1cccc(NC(=O)CCN2C(=O)c3ccc([N+](=O)[O-])cc3C2=O)c1
4. COc1ccc2sc(-c3ccccc3OC)c(-c3ccc4c(c3)OCCO4)c2c1

OUTPUT:
1. 2.99
2. 75.9
3. -4.23
4. 17.4

----------
- Protocol Text: growth inhibition of non-replicating M. tuberculosis (AID 488890)
- Condition Description: Mycobacterium tuberculosis non-replicating, at 25 µM, stronger effect = higher value
Hit rate of the full screen: of about 320,000 compounds, about 1,300 (0.41%) were called active. Roughly 3% stayed inconclusive and do not appear here. The list is a sample of the results. Entries with a potency or affinity are not part of this list.
Assignment: determine reported inhibition for the given compounds.
Give bare numbers, in %.

* COc1ccc(N=C2NC(=O)C(CC(=O)NCCc3ccc(OC)c(OC)c3)S2)cc1 (stereo unspecified) | 14.1
* Cc1ccc(CCC(=O)Nc2ccc(Cl)cc2)o1 | 79.5
* O=C(CCNC(=O)Cn1ccc2ccccc2c1=O)NCc1ccc(F)cc1Cl | -3.09
* COc1cc(C(=O)Nc2nnc(C3=COCCO3)o2)cc(OC)c1OC | -6.31
* Cc1ccc(CCC(=O)Nc2ccc(N(C)C)cc2)o1 | 39.5

Okay, here is my list. What is inhibition for each of these?
1. O=C(O)c1ccc(Cl)c(S(=O)(=O)Nc2cccc(C(=O)Nc3cccc(C(F)(F)F)c3)c2)c1
2. CS(=O)(=O)c1cccc(C(=O)Nc2nnc(C3=COCCO3)o2)c1
3. Cc1cccc(NC(=O)CCc2ccc(C)o2)c1
4. COc1ccc(C(=O)Nc2nnc(C3=COCCO3)o2)cc1OC
5. O=C(Nc1nnc(C2=COCCO2)o1)c1ccc(S(=O)(=O)N2CCCC2)cc1

OUTPUT:
1: 26.6; 2: 22.2; 3: 25.7; 4: -10.9; 5: 6.48

INPUT: Would you kindly share the measured inhibition for FC(F)Sc1ccc(-n2c(-c3ccc(Cl)cc3)c[n+]3c2CCC3)cc1 ?
OUTPUT: -0.67

----------
- Protocol Text: growth inhibition of non-replicating M. tuberculosis (AID 488890);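 note: plate controls were DMSO cells for no effect and high antibiotic wells for full effect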
- Condition Description: Mycobacterium tuberculosis non-replicating, at 25 µM, stronger effect = higher value
Out of some 320,000 compounds screened, about 1,300 (0.41%) were called active. Roughly 3% stayed inconclusive and do not appear here. A selection follows. Measured potencies and affinities stand elsewhere.
Measured Quantity: inhibition (%)
Give bare numbers, in %.

These recorded examples may help you get a feel for the data.
- O=C(CSc1ncn(-c2ccccc2)n1)Nc1nccs1: 12.5
- Cc1ccccc1Sc1ncnc2onc(C)c12: 5.13
- C/C(CC(=O)Nc1ccc(N(C)C)cc1)=N\NC(=O)c1ccc(Cl)cc1: 8
- O=C1CN(C(=O)c2cccc(Br)c2)c2ccccc2N1: -8.78
- O=C(C[n+]1cccc(Br)c1)c1ccc(-c2ccccc2)cc1: 31.7
- COc1ccc2c(Cl)c(C(=O)N/N=C/c3c(C)[nH]c4ccccc34)sc2c1: -5.52
- CCc1nnc(NC(=O)c2c(-c3ccccc3)noc2C)s1: 13.3
- COc1ccc(Cc2nnc(NC(=O)c3c(-c4ccccc4)noc3C)s2)cc1: 4.39
- C/C(CC(=O)Nc1ccc(N(C)C)cc1)=N\NC(=O)c1ccc(F)cc1: 8.75
- CCN(CC)C(=O)[C@H]1CC(CC(=O)NCCCOC)C(=O)N2CCc3c([nH]c4ccccc34)[C@]12C (stereo partly specified): -1.9

Moving on to another compound below.
INPUT: Would you kindly share the measured inhibition for Cc1ccc(Sc2ncnc3onc(C)c23)cc1 ?
OUTPUT: 72.5

----------
Assignment: determine reported inhibition for the given molecules.
- Protocol Text: growth inhibition of non-replicating M. tuberculosis (AID 488890);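 note: plate controls were DMSO cells for no effect and high antibiotic wells for full effect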
- Condition Description: Mycobacterium tuberculosis non-replicating, at 25 µM, stronger effect = higher value
Hit rate of the full screen: of about 320,000 compounds, about 1,300 (0.41%) were called active. Inconclusive results (about 3%) are left out. These entries were drawn from the full list. Results with a measured potency or affinity are listed apart.
Give bare numbers, in %.

* CCCCN(CC)CCCNC(=O)c1cc2c(-c3ccc(OC)c(OC)c3)nn(C)c2s1 | 34.8

Okay, here is my list. What is inhibition for each of these?
1. COc1ccc(-c2sccc2C(C)C(=O)O)cc1 (stereo unspecified)
2. O=C(O)c1ccc(N=C2SCC(=O)N2Cc2ccccc2)cc1
3. CCN1C(=O)/C(=C/c2ccc(N3CCCC3)cc2)NC1=S
4. O=C(CNC(=O)N1CC(=O)Nc2ccccc21)Nc1ccccc1F
5. O=C1CSC(=S)N1c1cccnc1

OUTPUT:
1.98
7
52.1
-10.2
11.9

----------
- Protocol Text: growth inhibition of non-replicating M. tuberculosis (AID 488890);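 note: plate controls were DMSO cells for no effect and high antibiotic wells for full effect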
- Condition Description: Mycobacterium tuberculosis non-replicating, at 25 µM, stronger effect = higher value
In all, about 320,000 compounds went through this assay and about 1,300 (0.41%) were called active. Inconclusive results (about 3%) are left out. A selection follows. Potency and affinity values are given separately.
Assignment: determine reported inhibition for the given compounds.
Give bare numbers, in %.

- Cc1cc(OC2CCCCC2)nc(-c2ccccc2O)n1: 0.01

Okay, here is my list. What is inhibition for each of these?
1. CC(=O)c1csc(COc2ccc(Cl)cc2)n1
2. COc1ccc(NC(=O)c2cc([N+](=O)[O-])ccc2N2CCCCC2)cc1
3. COc1ccc(N2CCOCC2)c(NC(=O)c2cccs2)c1
4. CCOC(=O)C1=NN(c2ccccc2)C(c2ccccc2)CC1=O (centres undefined)
5. Cc1onc(-c2ccc(Cl)cc2Cl)c1-c1csc(COc2ccccc2)n1

OUTPUT:
1. 38.9
2. -7.4
3. -2.48
4. 12.4
5. -7.56
